# credit: patent US20030199671A1

Molecular target: T1, human IgG1 (human, UniProt P01857-1 1-330 = IgG part)
T1 construct: Calbiochem; human plasma IgG1 in anisotropy studies, myeloma-derived (cat. 400120) in batch/column studies; also called hIgG1
T1 sequence (P01857 other isoform, or with tags, fused parts or gaps): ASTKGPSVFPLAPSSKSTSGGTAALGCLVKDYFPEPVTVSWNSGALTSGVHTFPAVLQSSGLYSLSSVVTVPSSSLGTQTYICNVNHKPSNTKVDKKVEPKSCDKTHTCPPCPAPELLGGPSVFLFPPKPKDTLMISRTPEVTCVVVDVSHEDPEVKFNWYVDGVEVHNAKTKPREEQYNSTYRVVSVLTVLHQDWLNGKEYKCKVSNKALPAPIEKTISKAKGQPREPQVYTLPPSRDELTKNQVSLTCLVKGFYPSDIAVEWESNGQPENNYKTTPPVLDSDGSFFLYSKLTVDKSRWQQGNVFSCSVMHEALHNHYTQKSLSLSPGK
Assay: batch binding, immobilised ligand
Positions of bridges follow the written chain, without caps; N, C: chain ends.
Result Type: Bound (% of Total Load) (%)

Briefly, Bound (% of Total Load) measured for Ac-GDRRACSRDWSGALVWCAGHEPGPEGGGK-NH2 (not fully specified (bridges); printed as Ac-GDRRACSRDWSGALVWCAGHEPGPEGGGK-NH2; cysteine pairing not given here, immobilised on Sepharose in batch/column assays) [DX253] : 86

Briefly, Bound (% of Total Load) measured for Ac-GDNPMCWRASWWEDAYCINHEPGPEGGGK-NH2 (not fully specified (bridges); printed as Ac-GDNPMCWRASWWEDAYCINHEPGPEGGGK-NH2; cysteine pairing not given here, Derivative of DX596 (two internal lysines replaced by arginine and alanine); immobilised) [DX1071] : 7

Briefly, Bound (% of Total Load) measured for Ac-GDNPMCWRAHWWEDAYCINHEPGPEGGGK-NH2 (not fully specified (bridges); printed as Ac-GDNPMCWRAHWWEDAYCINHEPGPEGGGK-NH2; cysteine pairing not given here, Derivative of DX596 (Lys-Lys to Arg-Ala and adjacent Ser to His); immobilised) [DX1072] : 31

Briefly, Bound (% of Total Load) measured for Ac-GDSWNCAFHHNEMVWCDDGGTPGPEGGGK-NH2 (not fully specified (bridges); printed as Ac-GDSWNCAFHHNEMVWCDDGGTPGPEGGGK-NH2; cysteine pairing not given here, Immobilised on Sepharose) [DX597] : 93

Briefly, Bound (% of Total Load) measured for Ac-GDWGECTVTSYGELIWCGGLEPGPEGGGK-NH2 (not fully specified (bridges); printed as Ac-GDWGECTVTSYGELIWCGGLEPGPEGGGK-NH2; cysteine pairing not given here, Immobilised on Sepharose) [DX1070] : 87

Briefly, Bound (% of Total Load) measured for Ac-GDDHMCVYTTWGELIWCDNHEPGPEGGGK-NH2 (disulfide 6-17 (inferred), Synthetic disulfide-cyclised peptide) [DX249] : 88
